assay_name: Pharmacokinetics of saponins in rat plasma after oral gavage of raw
Format: in vivo, Sprague–Dawley rats
particulars: male, Sprague-Dawley, rat, plasma, po, 1 g/kg, Tmax, male SD rats, oral gavage of raw P. notoginseng aqueous extract 1 g/kg, n = 6, mean ± SD
property_measured: Tmax (h)
Field format: number, assumed h, no unit text.

Below, each entry is followed by its recorded Tmax result.
compound: CC(C)=CCC[C@](C)(O[C@@H]1O[C@H](CO)[C@@H](O)[C@H](O)[C@H]1O)[C@H]1CC[C@]2(C)[C@@H]1[C@H](O)C[C@@H]1[C@@]3(C)CC[C@H](O[C@@H]4O[C@H](CO)[C@@H](O)[C@H](O)[C@H]4O[C@@H]4O[C@H](CO)[C@@H](O)[C@H](O)[C@H]4O)C(C)(C)[C@@H]3CC[C@]12C [Rd, ginsenoside Rd]
readout_number: 8.67
--
compound: CC(C)=CCC[C@](C)(O[C@@H]1O[C@H](CO)[C@@H](O)[C@H](O)[C@H]1O)[C@H]1CC[C@]2(C)[C@@H]1[C@H](O)C[C@@H]1[C@@]3(C)CC[C@H](O)C(C)(C)[C@@H]3[C@@H](O[C@@H]3O[C@H](CO)[C@@H](O)[C@H](O)[C@H]3O[C@@H]3O[C@@H](C)[C@H](O)[C@@H](O)[C@H]3O)C[C@]12C [Re, ginsenoside Re]
readout_number: 1.24
--
compound: CC(C)=CCC[C@](C)(O[C@@H]1O[C@H](CO[C@@H]2O[C@H](CO)[C@@H](O)[C@H](O)[C@H]2O)[C@@H](O)[C@H](O)[C@H]1O)[C@H]1CC[C@]2(C)[C@@H]1[C@H](O)C[C@@H]1[C@@]3(C)CC[C@H](O[C@@H]4O[C@H](CO)[C@@H](O)[C@H](O)[C@H]4O[C@@H]4O[C@H](CO)[C@@H](O)[C@H](O)[C@H]4O)C(C)(C)[C@@H]3CC[C@]12C [Rb1, ginsenoside Rb1]
readout_number: 8.67

Next compound, Tmax to be filled in.
I have this compound here, CC(C)=CCC[C@](C)(O[C@@H]1O[C@H](CO)[C@@H](O)[C@H](O)[C@H]1O)[C@H]1CC[C@]2(C)[C@@H]1[C@H](O)C[C@@H]1[C@@]3(C)CC[C@H](O)C(C)(C)[C@@H]3[C@@H](O[C@@H]3O[C@H](CO)[C@@H](O)[C@H](O)[C@H]3O)C[C@]12C [Rg1, ginsenoside Rg1] , and I need its recorded Tmax.
9.33

---

AUC(0-t) overview
assay_name: Pharmacokinetics of saponins in rat plasma after oral gavage of raw
Assay type: in vivo, Sprague–Dawley rats
particulars: male, Sprague-Dawley, rat, plasma, po, 1 g/kg, AUC0–t, male SD rats, oral gavage of raw P. notoginseng aqueous extract 1 g/kg, n = 6, mean ± SD
Field format: number, assumed ng·h/mL, no unit text.

Below, each entry is followed by its recorded AUC(0-t) result.
molecule: CC(C)=CCC[C@](C)(O[C@@H]1O[C@H](CO)[C@@H](O)[C@H](O)[C@H]1O)[C@H]1CC[C@]2(C)[C@@H]1[C@H](O)C[C@@H]1[C@@]3(C)CC[C@H](O)C(C)(C)[C@@H]3[C@@H](O[C@@H]3O[C@H](CO)[C@@H](O)[C@H](O)[C@H]3O)C[C@]12C [Rg1, ginsenoside Rg1]
property_measured: AUC(0-t)
readout_number: 808
--
molecule: CC(C)=CCC[C@](C)(O[C@@H]1O[C@H](CO[C@@H]2O[C@H](CO)[C@@H](O)[C@H](O)[C@H]2O)[C@@H](O)[C@H](O)[C@H]1O)[C@H]1CC[C@]2(C)[C@@H]1[C@H](O)C[C@@H]1[C@@]3(C)CC[C@H](O[C@@H]4O[C@H](CO)[C@@H](O)[C@H](O)[C@H]4O[C@@H]4O[C@H](CO)[C@@H](O)[C@H](O)[C@H]4O)C(C)(C)[C@@H]3CC[C@]12C [Rb1, ginsenoside Rb1]
property_measured: AUC(0-t)
readout_number: 15100
--
molecule: CC(C)=CCC[C@](C)(O[C@@H]1O[C@H](CO)[C@@H](O)[C@H](O)[C@H]1O)[C@H]1CC[C@]2(C)[C@@H]1[C@H](O)C[C@@H]1[C@@]3(C)CC[C@H](O)C(C)(C)[C@@H]3[C@@H](O[C@@H]3O[C@H](CO)[C@@H](O)[C@H](O)[C@H]3O[C@@H]3O[C@@H](C)[C@H](O)[C@@H](O)[C@H]3O)C[C@]12C [Re, ginsenoside Re]
property_measured: AUC(0-t)
readout_number: 87.7

I have this molecule here, CC(C)=CCC[C@](C)(O[C@@H]1O[C@H](CO)[C@@H](O)[C@H](O)[C@H]1O)[C@H]1CC[C@]2(C)[C@@H]1[C@H](O)C[C@@H]1[C@@]3(C)CC[C@H](O[C@@H]4O[C@H](CO)[C@@H](O)[C@H](O)[C@H]4O[C@@H]4O[C@H](CO)[C@@H](O)[C@H](O)[C@H]4O)C(C)(C)[C@@H]3CC[C@]12C [Rd, ginsenoside Rd] , and I need its recorded AUC(0-t).
3630

Source of measurements: paper PMC8172216
